Test system: C. difficile
Protocol description: microbe, parasite or virus in culture
Type: cell-based, Clostridium difficile
Quantity name: MIC 90 (µg/mL)

Compound	Target	Number
C=C1NC(=O)[C@H](Cc2c[nH]c3ccccc23)NC(=O)[C@H](NC(=O)[C@H](CCCCN)NC(=O)[C@@H](N)[C@@H](C)CC)CSC[C@@H](C(=O)N[C@H]2C(=O)N3CCC[C@H]3C(=O)NCC(=O)N[C@H](C(=O)N[C@@H](C)C(=O)N[C@@H](CC(N)=O)C(=O)N/C(=C\C)C(=O)NCC(=O)N[C@@H]3CSC[C@@H]4NC(=O)[C@H](Cc5ccc(O)cc5)NC(=O)[C@@H](CS/C=C\NC4=O)NC(=O)[C@H](CC(N)=O)NC(=O)[C@H](Cc4ccccc4)NC3=O)CS[C@H]2C)NC(=O)[C@H](CC(C)C)NC1=O [OG706]	C. difficile	1

###

Test system: C. difficile
Protocol description: microbe, parasite or virus in culture
Assay type: cell-based, Clostridium difficile
Quantity name: MIC Mode (mg/L)

Item smiles	Target	Quantity name	Number
C=C1NC(=O)[C@H](Cc2c[nH]c3ccccc23)NC(=O)[C@H](NC(=O)[C@H](CCCCN)NC(=O)[C@@H](N)CC(C)C)CSC[C@@H](C(=O)N[C@H]2C(=O)N3CCC[C@H]3C(=O)NCC(=O)N[C@H](C(=O)N[C@@H](C)C(=O)N[C@@H](CC(=O)O)C(=O)N/C(=C\C)C(=O)NCC(=O)N[C@@H]3CSC[C@@H]4NC(=O)[C@H](Cc5ccc(O)cc5)NC(=O)[C@@H](CS/C=C\NC4=O)NC(=O)[C@H](CC(N)=O)NC(=O)[C@H](Cc4ccccc4)NC3=O)CS[C@H]2C)NC(=O)[C@H](CC(C)C)NC1=O	C. difficile	MIC Mode	1

###

System: C. difficile
Protocol description: microbe, parasite or virus in culture
Type: cell-based, Clostridium difficile
Quantity name: Minimum Inhibitory Concentration C. difficile ATCC BAA-1874 (µg/mL)

Item smiles	Target	Number
C=C1NC(=O)[C@H](Cc2c[nH]c3ccccc23)NC(=O)[C@H](NC(=O)[C@H](CCCCN)NC(=O)[C@@H](N)[C@@H](C)CC)CSC[C@@H](C(=O)N[C@H]2C(=O)N3CCC[C@H]3C(=O)NCC(=O)N[C@H](C(=O)N[C@@H](C)C(=O)N[C@@H](CC(N)=O)C(=O)N/C(=C\C)C(=O)NCC(=O)N[C@@H]3CSC[C@@H]4NC(=O)[C@H](Cc5ccc(O)cc5)NC(=O)[C@@H](CS/C=C\NC4=O)NC(=O)[C@H](CC(N)=O)NC(=O)[C@H](Cc4ccccc4)NC3=O)CS[C@H]2C)NC(=O)[C@H](CC(C)C)NC1=O	C. difficile	0.5

###

Reported MIC 90 is given for each of the following compounds.
Test system: C. difficile
Protocol description: microbe, parasite or virus in culture
Type: cell-based, Clostridium difficile

Item smiles	MIC 90 [µg/mL]
C=C1NC(=O)[C@H](Cc2c[nH]c3ccccc23)NC(=O)[C@H](NC(=O)[C@H](CCCCN)NC(=O)[C@@H](N)CC(C)C)CSC[C@@H](C(=O)N[C@H]2C(=O)N3CCC[C@H]3C(=O)NCC(=O)N[C@H](C(=O)N[C@@H](C)C(=O)N[C@@H](CC(N)=O)C(=O)N/C(=C\C)C(=O)NCC(=O)N[C@@H]3CSC[C@@H]4NC(=O)[C@H](Cc5ccc(O)cc5)NC(=O)[C@@H](CS/C=C\NC4=O)NC(=O)[C@H](CC(N)=O)NC(=O)[C@H](Cc4ccccc4)NC3=O)CS[C@H]2C)NC(=O)[C@H](CC(C)C)NC1=O	0.5
C=C1NC(=O)[C@H](Cc2c[nH]c3ccccc23)NC(=O)[C@H](NC(=O)[C@H](CCCCN)NC(=O)[C@@H](N)[C@@H](C)CC)CSC[C@@H](C(=O)N[C@H]2C(=O)N3CCC[C@H]3C(=O)NCC(=O)N[C@H](C(=O)N[C@@H](C)C(=O)N[C@@H](CC(N)=O)C(=O)N/C(=C\C)C(=O)NCC(=O)N[C@@H]3CSC[C@@H]4NC(=O)[C@H](Cc5ccccc5)NC(=O)[C@@H](CS/C=C\NC4=O)NC(=O)[C@H](CC(N)=O)NC(=O)[C@H](Cc4ccccc4)NC3=O)CS[C@H]2C)NC(=O)[C@H](CC(C)C)NC1=O	1

###

Experimental parameters: Solubility 5% D-mannitol, 5% D-mannitol in water, visual assessment
# key: entry, value: solubility
Quantity name: solubility

Compound	Result
C=C1NC(=O)[C@H](Cc2c[nH]c3ccccc23)NC(=O)[C@H](NC(=O)[C@H](CCCCN)NC(=O)[C@@H](N)CC(C)C)CSC[C@@H](C(=O)N[C@H]2C(=O)N3CCC[C@H]3C(=O)NCC(=O)N[C@H](C(=O)N[C@@H](C)C(=O)N[C@@H](CC(N)=O)C(=O)N/C(=C\C)C(=O)NCC(=O)N[C@@H]3CSC[C@@H]4NC(=O)[C@H](Cc5ccc(O)cc5)NC(=O)[C@@H](CS/C=C\NC4=O)NC(=O)[C@H](CC(N)=O)NC(=O)[C@H](Cc4ccccc4)NC3=O)CS[C@H]2C)NC(=O)[C@H](CC(C)C)NC1=O [OG712]	12 mg/mL
C=C1NC(=O)[C@H](Cc2c[nH]c3ccccc23)NC(=O)[C@H](NC(=O)[C@H](CCCCN)NC(=O)[C@@H](N)[C@@H](C)CC)CSC[C@@H](C(=O)N[C@H]2C(=O)N3CCC[C@H]3C(=O)NCC(=O)N[C@H](C(=O)N[C@@H](C)C(=O)N[C@@H](C)C(=O)N/C(=C\C)C(=O)NCC(=O)N[C@@H]3CSC[C@@H]4NC(=O)[C@H](Cc5ccc(O)cc5)NC(=O)[C@@H](CS/C=C\NC4=O)NC(=O)[C@H](CC(N)=O)NC(=O)[C@H](Cc4ccccc4)NC3=O)CS[C@H]2C)NC(=O)[C@H](CC(C)C)NC1=O [OG711]	12 to 18 mg/mL
C=C1NC(=O)[C@H](Cc2c[nH]c3ccccc23)NC(=O)[C@H](NC(=O)[C@H](CCCCN)NC(=O)[C@@H](N)[C@@H](C)CC)CSC[C@@H](C(=O)N[C@H]2C(=O)N3CCC[C@H]3C(=O)NCC(=O)N[C@H](C(=O)N[C@@H](C)C(=O)N[C@@H](CC(N)=O)C(=O)N/C(=C\C)C(=O)NCC(=O)N[C@@H]3CSC[C@@H]4NC(=O)[C@H](Cc5ccc(O)cc5)NC(=O)[C@@H](CS/C=C\NC4=O)NC(=O)[C@H](CC(N)=O)NC(=O)[C@H](Cc4ccccc4)NC3=O)CS[C@H]2C)NC(=O)[C@H](CC(C)C)NC1=O [OG706]	18 to 24 mg/mL
C=C1NC(=O)[C@H](Cc2c[nH]c3ccccc23)NC(=O)[C@H](NC(=O)[C@H](CCCCN)NC(=O)[C@@H](N)[C@@H](C)CC)CSC[C@@H](C(=O)N[C@H]2C(=O)N3CCC[C@H]3C(=O)NCC(=O)N[C@H](C(=O)N[C@@H](C)C(=O)N[C@@H](CC(N)=O)C(=O)N/C(=C\C)C(=O)NCC(=O)N[C@@H]3CSC[C@@H]4NC(=O)[C@H](Cc5ccccc5)NC(=O)[C@@H](CS/C=C\NC4=O)NC(=O)[C@H](CC(N)=O)NC(=O)[C@H](Cc4ccccc4)NC3=O)CS[C@H]2C)NC(=O)[C@H](CC(C)C)NC1=O [OG718]	> 24 mg/mL
C=C1NC(=O)[C@H](Cc2c[nH]c3ccccc23)NC(=O)[C@H](NC(=O)[C@H](CCCCN)NC(=O)[C@@H](N)C(C)C)CSC[C@@H](C(=O)N[C@H]2C(=O)N3CCC[C@H]3C(=O)NCC(=O)N[C@H](C(=O)N[C@@H](C)C(=O)N[C@@H](CC(N)=O)C(=O)N/C(=C\C)C(=O)NCC(=O)N[C@@H]3CSC[C@@H]4NC(=O)[C@H](Cc5ccc(O)cc5)NC(=O)[C@@H](CS/C=C\NC4=O)NC(=O)[C@H](CC(N)=O)NC(=O)[C@H](Cc4ccccc4)NC3=O)CS[C@H]2C)NC(=O)[C@H](CC(C)C)NC1=O [OG716]	12 to 18 mg/mL
C=C1NC(=O)[C@H](Cc2c[nH]c3ccccc23)NC(=O)[C@H](NC(=O)[C@H](CCCCN)NC(=O)[C@@H](N)[C@@H](C)CC)CSC[C@@H](C(=O)N[C@H]2C(=O)N3CCC[C@H]3C(=O)NCC(=O)N[C@H](C(=O)N[C@@H](C)C(=O)N[C@@H](CC(=O)O)C(=O)N/C(=C\C)C(=O)NCC(=O)N[C@@H]3CSC[C@@H]4NC(=O)[C@H](Cc5ccc(O)cc5)NC(=O)[C@@H](CS/C=C\NC4=O)NC(=O)[C@H](CC(N)=O)NC(=O)[C@H](Cc4ccccc4)NC3=O)CS[C@H]2C)NC(=O)[C@H](CC(C)C)NC1=O [OG703]	7 mg/mL
